Test: ATG_RORE_CIS: Attagene CIS-FACTORIAL HepG2 Assay for human RAR-related Orphan Receptor Element (RORE) (AID 2282959)
Conditions: HepG2 Attagene cis-factorial RORE reporter, mRNA; actives raise or lower the signal
Description: ATG_CIS is a cell-based, multiplexed-readout assay that uses HepG2, a human liver cell line, with measurements taken at 24 hours after chemical dosing in a 24-well plate.ATG_RORE_CIS is one of 52 assay component(s) measured or calculated from the ATG_CIS assay. […] This assay endpoint, ATG_RORE_CIS, was analyzed with bidirectional fitting relative to DMSO as the negative control and baseline of activity. […]
Calls of active or inactive are those of the source. The calls were made as follows: active = hit-call score of the fitted dose curve at least 0.9, where 1 is the maximum; inactive = score below 0.9.
Select the correct class. Options are yes for active, no for inactive and nothing else.

Solved entries:
# MOLECULE, LABEL_VALUE
records = [
    ("O=c1oc(=O)c2cc3c(=O)oc(=O)c3cc12", "no"),
    ("O=C(O)c1cccc([N+](=O)[O-])c1", "no"),
    ("ClCCCl", "no"),
]

Could you check what this test reported for CC(CN1c2ccccc2Sc2ccccc21)N(C)C (centres undefined) ?
no

Could you check what this test reported for CC1(C)OC[C@@H]2O[C@@]3(C(=O)O)OC(C)(C)O[C@H]3[C@@H]2O1 ?
no

Could you check what this test reported for FC1(F)C(F)(F)C(F)(F)C2(F)C(F)(C1(F)F)C(F)(F)C(F)(F)C1(F)C(F)(F)C(F)(F)C(F)(F)C(F)(F)C12F (centres undefined) ?
no

Could you check what this test reported for CC1(C)C(=O)N(Br)C(=O)N1Cl ?
no

Could you check what this test reported for CC1CCC(C(C)(C)O)CC1 (centres undefined) ?
no

Could you check what this test reported for CCc1ccc(C=O)cc1 ?
no

Could you check what this test reported for CCN(CC)CCOC(=O)c1ccc(N)cc1 ?
no

Could you check what this test reported for O=C(O)c1cn(-c2ccc(F)cc2)c2cc(N3CCNCC3)c(F)cc2c1=O ?
no

Could you check what this test reported for Nc1cc([N+](=O)[O-])ccc1Cl ?
no

Could you check what this test reported for COCCCOc1ccnc(CS(=O)c2nc3ccccc3[nH]2)c1C (centres undefined) ?
no

Could you check what this test reported for O=C(O)CCCCC1CCSS1 (centres undefined) ?
no

Could you check what this test reported for COC(C(=O)O)c1ccccc1 (centres undefined) ?
no

Could you check what this test reported for CCCCCC=CCC(=O)OC ?
no

Could you check what this test reported for CSc1nnc(C(C)(C)C)c(=O)[nH]1 ?
no

Could you check what this test reported for CC(=O)O[C@]1(C(C)=O)CC[C@H]2[C@@H]3C[C@H](C)C4=CC(=O)CC[C@]4(C)[C@H]3CC[C@@]21C ?
yes

----------
experiment: ATG_BRE_CIS: Attagene CIS-FACTORIAL HepG2 Assay for human Bone Morphogenetic Protein (BMP) Response Element (BRE) (AID 2282933); conditions: HepG2 BMP response element reporter, Attagene transcription factor profiling; actives raise or lower the signal
Calls of active or inactive are those of the source. The calls were made as follows: active = hit-call score of the fitted dose curve at least 0.9, where 1 is the maximum; inactive = score below 0.9.
Select the correct class. Options are active, inactive and nothing else.

Solved entries:
# COMPOUND, LABEL_VALUE
records = [
    ("CC(=O)OCCOC(C)=O", "inactive"),
    ("Cc1ccc(C(=O)c2cc(O)c(O)c([N+](=O)[O-])c2)cc1", "active"),
    ("C=CC(=O)OCCOCCOCC", "inactive"),
]

Could you check what this test reported for CCCCC(CC)COCCC#N (centres undefined) ?
inactive

Could you check what this test reported for CCCC(=O)OCCC(C)CCC=C(C)C (centres undefined) ?
inactive

Could you check what this test reported for C[C@H]1C[C@@H]2[C@H]([C@@H](O)C[C@@]3(C)[C@H]2CC[C@]3(O)C(=O)CO)[C@@]2(C)C=CC(=O)C=C12 ?
inactive

Could you check what this test reported for C=CC[N+](C)(C)CC=C ?
inactive

Could you check what this test reported for Sc1nc(S)nc(S)n1 ?
inactive

Could you check what this test reported for CCn1c2ccccc2c2cc(N)ccc21 ?
active

Could you check what this test reported for COC(C(=O)O)c1ccccc1 (centres undefined) ?
inactive

Could you check what this test reported for CC(=O)OCc1ccc2c(c1)OCO2 ?
inactive

Could you check what this test reported for CC1=CC(=O)NS(=O)(=O)O1 ?
inactive

Could you check what this test reported for CC(CN1c2ccccc2Sc2ccccc21)N(C)C (centres undefined) ?
inactive

Could you check what this test reported for CC1CCC2CC1C2(C)C (centres undefined) ?
inactive

----------
assay: BSK_4H_Eotaxin3: BioMAP Diversity Plus: 4H Assay for Eotaxin 3 Biomarker Activity (AID 2283000); conditions: primary human endothelial cells (HUVEC); actives raise or lower the signal
The source made the active and inactive calls. How the source made its calls: active means hit-call score of the fitted dose curve at least 0.9, where 1 is the maximum; inactive means score below 0.9.
Select the correct class. Options are label 1 for active, label 0 for inactive and nothing else.

Solved entries:
# MOLECULE, LABEL_VALUE
measured = [
    ("CC(=O)O[C@]1(C(C)=O)CC[C@H]2[C@@H]3C[C@H](C)C4=CC(=O)CC[C@]4(C)[C@H]3CC[C@@]21C", "label 0"),
    ("CCCCC(CC)COCCC#N (stereo not given)", "label 0"),
    ("C=CCOC(=O)CCC1CCCCC1", "label 0"),
    ("NCCNCCN", "label 0"),
    ("Cc1ccc2n[nH]nc2c1", "label 0"),
    ("CCCCCCCCC=O", "label 0"),
    ("CCCCC/C=C/C=C/C=O", "label 1"),
    ("CCc1c(C)cc(N)c(CC)c1N", "label 0"),
    ("C#C[C@]1(O)CC[C@H]2[C@@H]3CCC4=Cc5oncc5C[C@]4(C)[C@H]3CC[C@@]21C", "label 0"),
    ("c1ccc2sc(SN(C3CCCCC3)C3CCCCC3)nc2c1", "label 0"),
]

Could you now consider this next molecule?
Could you check what this test reported for O=C1CCCCCCCCCCCCCCO1 ?
label 1

----------
read-out: Collagen I, COL1A1 (gene 1277); test: BSK_MyoF_CollagenI: BioMAP Diversity Plus: MyoF Assay for Collagen I Biomarker Activity (AID 2284238); conditions: primary human lung fibroblasts
Active and inactive are the calls of the source. Rule for the calls: active = hit-call score of the fitted dose curve at least 0.9, where 1 is the maximum; inactive = score below 0.9.
Select the correct class. Options are active, inactive and nothing else.

Solved entries:
# MOLECULE, LABEL_VALUE
records = [
    ("O=C1OC2(c3cc(Br)c(O)c(Br)c3Oc3c2cc(Br)c(O)c3Br)c2c(Cl)c(Cl)c(Cl)c(Cl)c21", "active"),
    ("O=C(O)c1cn(C2CC2)c2cc(N3CCNCC3)c(F)cc2c1=O", "inactive"),
    ("C=C(C)C(=O)O[C@H]1C[C@@H]2CC[C@@]1(C)C2(C)C", "active"),
    ("O=C=NC1CCC(CC2CCC(N=C=O)CC2)CC1 (configuration not stated)", "inactive"),
    ("CC1COc2ccccc2N1C(=O)C(Cl)Cl (configuration not stated)", "active"),
]

Could you check what this test reported for C=C[Si](OCC)(OCC)OCC ?
inactive

Could you check what this test reported for O=P(c1ccccc1)(c1ccccc1)c1ccccc1 ?
inactive

----------
experiment: ATG_E_Box_CIS: Attagene CIS-FACTORIAL HepG2 Assay for human Enhancer Box (E-box) (AID 2282936); settings: HepG2 E-box cis-reporter transcription, actives raise or lower the signal
Activity calls are given as the source filed them. How the source made its calls: active means hit-call score of the fitted dose curve at least 0.9, where 1 is the maximum; inactive means score below 0.9.
Select the correct class. Options are 1 (active), -1 (inactive) and nothing else.

Solved entries:
# COMPOUND, LABEL_VALUE
measured = [
    ("Cc1cccc(Nc2ccccc2C(=O)O)c1C", -1),
    ("N#Cc1ccc(CC(=NNC(=O)Nc2ccc(OC(F)(F)F)cc2)c2cccc(C(F)(F)F)c2)cc1", -1),
    ("COC(C)CCO (stereo not drawn)", -1),
    ("O=C(O)c1cn(-c2ccc(F)cc2)c2cc(N3CCNCC3)c(F)cc2c1=O", -1),
    ("Nc1ccc(F)c([N+](=O)[O-])c1", -1),
]

Could you now consider this next compound?
Could you check what this test reported for S=C(S)NCCNC(=S)S ?
-1

----------
biological target: Hepatocyte nuclear factor 6 (Homo sapiens); test: ATG_HNF6_CIS: Attagene CIS-FACTORIAL HepG2 Assay for human Hepatocyte Nuclear Factor 6 (HNF6) (AID 2282952); details: HepG2 Attagene cis-factorial HNF6 reporter transcription; actives raise or lower the signal
Active and inactive are the calls of the source. How the source made its calls: active means hit-call score of the fitted dose curve at least 0.9, where 1 is the maximum; inactive means score below 0.9.
Select the correct class. Options are t = active, f = inactive and nothing else.

# COMPOUND, LABEL_VALUE
data = [
    ("O=C(O)CCCCC1CCSS1 (stereo not given)", "f"),
    ("COc1cc(C=O)ccc1OC(=O)C(C)C", "f"),
    ("CCCCCCCCC", "f"),
    ("Sc1nc(S)nc(S)n1", "f"),
    ("CC(C)C[C@H]1C(=O)N2CCC[C@H]2[C@]2(O)O[C@](NC(=O)[C@@H]3C=C4c5cccc6[nH]c(Br)c(c56)C[C@H]4N(C)C3)(C(C)C)C(=O)N12", "f"),
    ("CC(=O)OCC=Cc1ccccc1", "f"),
    ("C=C[C@@H](C)CCC=C(C)C", "f"),
    ("OC[C@H]1O[C@H](O[C@]2(CCl)O[C@H](CCl)[C@@H](O)[C@@H]2O)[C@H](O)[C@@H](O)[C@H]1Cl", "f"),
]

Could you check what this test reported for Nc1cc([N+](=O)[O-])ccc1O ?
f

Could you check what this test reported for CCCC(=O)OCCC(C)CCC=C(C)C (stereo not given) ?
t

Could you check what this test reported for CCC(=O)OCCC(C)CCC=C(C)C (stereo not given) ?
f

Could you check what this test reported for COc1ccc(OC)c(OC)c1 ?
f

Could you check what this test reported for OCC(CO)(CO)COCC(CO)(CO)CO ?
f

Could you check what this test reported for CCCC(C)C=O (stereo not given) ?
f

Could you check what this test reported for Cc1ccc2n[nH]nc2c1 ?
f
